System: Plasmodium falciparum
Assay: MMV: P. falciparum NF54 functionally mature Stage V gametocytes were incubated for 24 hr in the presence of the test compounds. Gamete formation was then triggered by addition of 2uM xantheurenic acid and temperature decrease to ~20C. Male gamete exflagellation was recorded and analysed by automated microscopy after 20 min. All compounds were tested in 4 independent experiments and data presented here is the mean.
Type: functional
Design: concentration or dose not given beside the values
metric: inhibition
Please format your answer as a value with the unit trailing.

Supply inhibition value. Item: COc1ccc2c(c1)OC(O)(C(F)(F)C(F)(F)F)CC2=O (stereo not given)
-139%

Supply inhibition value. Item: `COc1cc2c(cc1OC)C1=NNC(=O)C1=NC(C)(C)C2`
52.9%

Supply inhibition value. Item: `COc1ccc(-c2nonc2NC(=O)c2cccc(C)c2)cc1OC`
31.3%

Supply inhibition value. Item: `CCOc1c(Br)cc(C2C(C(=O)OC)=CN(C)C=C2C(=O)OC)cc1OC`
8.8%

Supply inhibition value. Item: `COc1cc(C(=O)ON=C(N)Cc2cccc3ccccc23)cc(OC)c1OC`
-12.8%

Supply inhibition value. Item: `COc1ccc(-c2cn3c(C(=O)Nc4ccccc4Cl)c(-c4ccccc4)c4c3n2CCCC4)cc1`
-67.8%

Supply inhibition value. Item: CC1CCCCN1CCCNC(=O)c1ccc2c(c1)sc1nc(-c3ccc(F)cc3)cn12 (stereo not given)
-15.9%

Supply inhibition value. Item: `CCOc1ccc2nc(C)cc(Nc3ccc(Br)cc3)c2c1`
-29.1%

Supply inhibition value. Item: O=C(O)C1Cc2c([nH]c3ccccc23)C(c2ccc(Cl)cc2Cl)N1 (stereo not given)
21%

Supply inhibition value. Item: `COc1cc(C(=O)Nc2ccc(-c3nc4ccccc4[nH]3)cc2)cc(OC)c1OC`
-40.5%

====

Test system: Plasmodium falciparum
Assay: MMV: P. falciparum NF54 functionally mature Stage V gametocytes were incubated for 24 hr in the presence of the test compounds. Gamete formation was then triggered by addition of 2uM xantheurenic acid and temperature decrease to ~20C. Male gamete exflagellation was recorded and analysed by automated microscopy after 20 min. All compounds were tested in 4 independent experiments and data presented here is the mean.
Type: functional
Parameters: concentration or dose not given beside the values
metric: inhibition (%)
Value expressed in %; do not type the unit.

Supply inhibition value. Item: `Cc1cc(Nc2cccc(F)c2)nc(NCc2ccccc2)n1`
20.4

Supply inhibition value. Item: `CCCCc1c(C)nc2c(OC)cccc2c1O`
54.7

Supply inhibition value. Item: `Cc1nc2ccccc2c(O)c1CC=C(Cl)Cl`
6.46

Supply inhibition value. Item: O=C1c2ccccc2C2=Nc3ccccc3SC(c3cccc(F)c3)C12 (stereo not given)
70.7

Supply inhibition value. Item: `Cc1cc(Nc2ccc(Cl)cc2)n2nc(C(F)(F)F)nc2n1`
15.3

Supply inhibition value. Item: `O=C(Nc1ccc(Cl)c(Cl)c1)Nc1ccc(Cl)c(Cl)c1`
-55.6

Supply inhibition value. Item: CCOC(=O)C1=C(c2ccccc2)N=c2sc(=Cc3cc(C)n(-c4ccc(F)cc4)c3C)c(=O)n2C1c1cccc(OC)c1OC (stereo not given)
17.4

Supply inhibition value. Item: C=CC12CCN(CC1)C(C(O)c1ccnc3ccc(OC)cc13)C2.Cl (stereo not given)
-29.1

Supply inhibition value. Item: `CCn1c(SCC(=O)Nc2cc(C(F)(F)F)ccc2Cl)nc2ccccc2c1=O`
22.5

Supply inhibition value. Item: `COc1ccc(CCN2CCC(CN(C)Cc3cnn(-c4ccccc4)c3)CC2)cc1`
-4.67

Supply inhibition value. Item: CCOc1cc(Cl)c(C(C)NC(=O)c2ccccc2)cc1OCC (stereo not given)
32.8

Supply inhibition value. Item: `O=C(Nc1ccc(-c2nc3cc4ccccc4cc3[nH]2)cc1)c1cccc(Br)c1`
30.7

Supply inhibition value. Item: `COc1cccc(C=Cc2nc(=O)c3ccccc3o2)c1OC`
-2.89

Supply inhibition value. Item: `CCCn1c(=N)c(C(=O)NC2CCCCC2)cc2c(=O)n3cccc(C)c3nc21`
22.1

Supply inhibition value. Item: Cl.N=c1n(CCN2CCCCC2)c2ccccc2n1CC(O)c1cccc(Br)c1 (stereo not given)
-19.3

Supply inhibition value. Item: OC(Cn1nnc2ccccc21)Cn1c2ccc(Br)cc2c2cc(Br)ccc21 (stereo not given)
33.4

Supply inhibition value. Item: `CCN(CC)c1ccc(NC(=O)c2cccs2)cc1`
44.7

Supply inhibition value. Item: `CN1CCN(c2c3c(c(C#N)c4nc5ccccc5n24)CCC3)CC1`
16.1

Supply inhibition value. Item: `Cl.Oc1ccccc1CNCC12CC3CC(CC(C3)C1)C2`
-27.5

Supply inhibition value. Item: CCCCCC(=O)N1c2ccccc2N=C2CC(c3ccc(OC)c(OC)c3)CC(O)=C2C1c1ccc(C(F)(F)F)cc1 (stereo not given)
59.4

Supply inhibition value. Item: `COc1ccc(CNC2CCN(c3ccc(NC(=O)c4cccc(Cl)c4)cc3)CC2)cc1OC`
15

Supply inhibition value. Item: CCN1CCCC1CNc1[nH]cnc2c3cc(Cl)ccc3nc1-2 (stereo not given)
18.2

Supply inhibition value. Item: `O=c1nc(C=Cc2ccc(Br)cc2)oc2ccccc12`
35.1

Supply inhibition value. Item: COc1ccc(CCNC(=O)c2cc(S(=O)(=O)N3CC(C)CC(C)C3)ccc2Sc2ccc(F)cc2)cc1OC (stereo not given)
-26.1

Supply inhibition value. Item: COc1ccc(C2c3ccc4ccccc4c3Oc3ncn(CCCn4ccnc4)c(=N)c32)cc1OC (stereo not given)
17.5

Supply inhibition value. Item: `Cc1ccccc1OCCSc1nc2ccc(NC(=O)c3ccccc3)cc2s1`
5.46

Supply inhibition value. Item: `COc1ccc2nc(C)cc(Nc3ccc(Cl)cc3)c2c1`
-17.3

Supply inhibition value. Item: `O=C(CSc1ccc2nnc(-c3cccc(F)c3)n2n1)Nc1ccc2c(c1)OCO2`
-1.24

Supply inhibition value. Item: `COc1ccc2sc(N(Cc3cccnc3)C(=O)c3ccc(C#N)cc3)nc2c1`
18.5

Supply inhibition value. Item: `Oc1c(CN2CCN(c3ccccc3F)CC2)cc(Br)c2cccnc12`
5.41
